Documented Inhibition rate, 1 μM across a set of compounds
# TARGET_OR_SYSTEM: NA from A/H3N2 (Influenza A virus, UniProt O91745)
# Sequence (O91745 whole entry, looked up): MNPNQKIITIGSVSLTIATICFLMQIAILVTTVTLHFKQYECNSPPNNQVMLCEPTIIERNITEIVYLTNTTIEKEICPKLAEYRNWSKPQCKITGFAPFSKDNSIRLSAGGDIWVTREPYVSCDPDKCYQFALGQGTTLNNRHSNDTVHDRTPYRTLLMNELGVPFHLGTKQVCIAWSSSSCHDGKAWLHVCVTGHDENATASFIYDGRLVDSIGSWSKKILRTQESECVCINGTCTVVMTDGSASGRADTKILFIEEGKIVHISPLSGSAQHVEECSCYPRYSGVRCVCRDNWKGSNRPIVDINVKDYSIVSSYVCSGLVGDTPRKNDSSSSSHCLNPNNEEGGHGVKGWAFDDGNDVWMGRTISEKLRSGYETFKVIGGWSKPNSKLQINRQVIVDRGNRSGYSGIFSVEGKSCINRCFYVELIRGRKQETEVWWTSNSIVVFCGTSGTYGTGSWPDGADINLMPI
# TEST_DESCRIPTION: biochemical
# Format: biochemical, seasonal A/H3N2
Give your result in % as a bare value.

A selection of reference data follows.
| SMILES_REPR | TEST_READOUT | MEASUREMENT_UNITS | EXPERIMENTAL_RESULT |
| --- | --- | --- | --- |
| CCC(CC)O[C@@H]1C=C(C(=O)O)C[C@H](NC(=O)c2cnn(Cc3ccccc3)c2)[C@H]1NC(C)=O | Inhibition rate, 1 μM | % | 7.71 |
| CCC(CC)O[C@@H]1C=C(C(=O)O)C[C@H](NC(=O)c2cnn(Cc3ccc(OC)cc3)c2)[C@H]1NC(C)=O | Inhibition rate, 1 μM | % | −0.21 |
| CCC(CC)O[C@@H]1C=C(C(=O)O)C[C@H](NC(=O)c2cc(-c3cccs3)n[nH]2)[C@H]1NC(C)=O | Inhibition rate, 1 μM | % | 21.57 |

Ask: Give the value of Inhibition rate, 1 μM reported for the following: CCC(CC)O[C@@H]1C=C(C(=O)O)C[C@H](NC(=O)c2cnn(-c3ccccc3C)c2)[C@H]1NC(C)=O
Reply: 12.74
